- System: NCI-H460 lung
- test-name: NCI-60 one-dose screen, 48 h
- assay-setup: 10 µM unless noted
Compounds without any hit were thinned out: in the full panel of roughly 83,000, 20% have a hit. Calls of active or inactive are those of the source. The calls were made as follows: active = growth percent below 10; inactive = the rest.
The reply should be one of these categories: t (active), f (inactive)

Below, 3 compounds whose answers are already recorded.
{"compound": "COc1cccc(-c2nc3sccn3c2-c2ccnc(NCCCNS(=O)(=O)c3ccccc3)n2)c1", "discrete-label": "f"}
{"compound": "Cc1nc2sccn2c1-c1csc(Nc2ccccc2Cl)n1", "discrete-label": "f"}
{"compound": "COC(=O)CCCCCN=Cc1c(O)c(O)c(C(C)C)c2cc(C)c(-c3c(C)cc4c(C(C)C)c(O)c(O)c(C=NCCCCCC(=O)OC)c4c3O)c(O)c12", "discrete-label": "t"}

Request: For CCCCn1c(=O)c(C2CNC(=O)c3ccccc3N2)cc2ccccc21 (stereo not drawn) , which call appears in the assay record?
Result: f

Request: Tell me the assay call for CC(C(=O)n1cc(-c2ccccc2)c(-c2ccccc2)c1)c1ccccc1 (stereo not drawn) please.
Result: f

Request: Assay outcome for OC1CC2c3ccccc3C1c1ccccc12 (stereo not drawn) : what was it?
Result: f

Request: Just curious, what result did Cc1sc(N=Nc2ccc(N(C)C)cc2)[n+]([O-])c1C get here?
Result: f

Request: Called result for O=C(CN1CCN(c2cc3c(cc2F)c(=O)c(C(=O)O)cn3C2CC2)CC1)Nc1ccc(C(=O)/C=C/c2ccccc2)cc1
Result: t

###

Here the recorded growth is given for each entry.
- Tested on: IGROV1 ovarian
- test-name: NCI-60 one-dose screen, 48 h (100 = growth as untreated, 0 = no growth, -100 = all killed)
- assay-setup: 10 µM unless noted
This is part of a sample that, as a whole, favours compounds with a hit. Of some 83,000 tested, about 20% had one in any assay.
Quick note: give the figure in %, leave out the unit.

{"molecule": "COc1ncc(-c2ccc3ncnc(Nc4cccc(Cl)c4)c3c2)cc1NS(=O)(=O)C1CC1", "measure-unit": "%", "observed": -38.6}
{"molecule": "CC(C)C(C(=O)CCN(C)C)c1ccc(Cl)cc1 (stereo not given)", "measure-unit": "%", "observed": 105}
{"molecule": "CC(=O)C1CCC(C)=CC1=O (stereo not given)", "measure-unit": "%", "observed": 102}
{"molecule": "Clc1nc2ccccc2nc1CI", "measure-unit": "%", "observed": 72.7}
{"molecule": "CCOC(=O)c1ccccc1NC(c1ccccc1)c1ccc2cccnc2c1O (stereo not given)", "measure-unit": "%", "observed": 41.8}

Request: Note down growth recorded for CC/C=C\C[C@H](O)C/C=C1/C(=O)C(Cl)=C[C@@H]1C/C=C\CCCC(=O)OC
Result: -12.6

Request: Let me know recorded growth for CCCC1OC(c2ccc(C(C)C)cc2)OCC1CC (stereo not given) , thanks.
Result: 112

Request: Write down growth measured for item Cc1cccc(NC(=O)c2sc3nc4c(cc3c2N)CCC4)c1C
Result: 44.6

Request: Determine its reported growth: O=C(COc1ccccc1)N1N=C(c2ccc(Cl)cc2)CC1c1c[nH]c2ccccc12 (stereo not given)
Result: 30.2

Request: Indicate its recorded growth; the molecule in question is CCC1=C[C@@H]2CN(C1)Cc1c([nH]c3ccccc13)[C@@](C(=O)OC)(c1cc3c(cc1OC)N(C=O)[C@H]1[C@@](O)(C(=O)OC)[C@H](OC(C)=O)[C@]4(CC)[C@@H]5C[C@@H]5CN5CC[C@]31[C@@H]54)C2
Result: 30.8
